Below, each entry is listed with its recorded pIC50.
Tgt: T1, human CD137 expressed on the surface of CHO cells (human, UniProt Q07011 24-255)
T1 construct: Also used for the Jurkat reporter cells that express human CD137 (functional rows); also called CHO human CD137 cells; CHO huCD137
Assay Notes: FMAT ligand inhibition, CD137 Ligand on CHO human CD137 cells
Scale: negative log10 of molar concentration, which is what pIC50 denotes.

| Binder | pIC50 |
| --- | --- |
| 1.78-6GS-4.1 (bispecific antibody, built from its printed name (1.78, 6GS linker, 4.1); not shown: His tag) QVQLVESGGGLVQPGGSLRLSCAATGFTLSNYWMNWVRQAPGKGLEWVANINQDGSERYYVDSVKGRFTISRDNAKNSLYLQMSSLRAEDTAVYFCARGGEGYGVDHYGLDVSGQGTTVTVSSGGGGSGGGGSGGGGSGGGGSGGGGSGGGGSEVQLVESGGGVVQPGRSLRLSCAASGFSFSGYGMHWVRQAPGKGLEWVAYISYDGSNKYYADSVKGRFTISRDNSKNTLYLQMNSLRAEDTAVYYCAKDPAWGLRLGESSSYDFDIWGQGTMVTVSS | 8.55 |
| Humabody VH 1.78 (VHH, human single VH domain) VH: QVQLVESGGGLVQPGGSLRLSCAATGFTLSNYWMNWVRQAPGKGLEWVANINQDGSERYYVDSVKGRFTISRDNAKNSLYLQMSSLRAEDTAVYFCARGGEGYGVDHYGLDVSGQGTTVTVSSHHHHHH | 8.82 |

Let us move to another entry and its pIC50.
Requested read-out: pIC50. Entry: Humabody VH 1.101 (VHH, human single VH domain) VHH: EVQLVESGGGLVQPGGSLRLSCAASGFTFSSHWMTWFRQAPGKGLEWVAHIKEGGSEKYYVDSVKGRFTISRDNAKNSLYLQMNSLRAEDTAVYYCARGGDGYSDSHFGVDVWGQGTTVTVSS
8.10
